test: MTS staining for cell viability in U1 cell assay; format: cell-based; conditions: human, U1 cells stimulated with TNF-α, Table 8, control, MTS, read-out: TC50
Measurement kind: CC50 at 3 days

Asked: Looking for the measured CC50 at 3 days of O=c1c2ccccc2n2nnc3ccc(NCCCN4CCN(CCCNc5ccc6nnn7c8ccccc8c(=O)c5c67)CC4)c1c32 [Temacrazine, reference compound] , can you help?
Given back: > 0.5 µM

###

System: U1 cells
Test: MTS staining for cell viability in U1 cell assay
Format: cell-based
Conditions: analogs, Table 8, MTS, read-out: TC50 (the source's name)
Method: At the time of the assay, cells were collected by centrifugation and counted by hemacytometer. If cell viability by Trypan Blue dye exclusion was less than 70% the assay was terminated. The cells were adjusted to 5×10^4 cells/mL and 100 μL placed in 96 well plates with 100 μL media containing a final concentration of 5 ng/mL TNF-α and the test compound. […] Compound toxicity was determined by MTS dye reduction. Virus expression was measured by supernatant reverse transcriptase activity. […]
Cut-off 30 µM on CC50: below means condition met, at or above means condition not met.

Check out these entries, answers already filled in.
1. Cc1nc(Cl)sc1C(=O)Nc1ccc(C(F)(F)F)cc1 [Compound 418] : condition not met
2. COc1ccc(-c2cc(-c3ccccc3)nc3sc(C(N)=O)c(N)c23)cc1 [Compound 335] : condition not met
3. FC(F)(F)c1cccc(Nc2nc(-c3ccccc3)nc3ccccc23)c1 [Compound 722] : condition not met
4. COc1ccc(-c2cnc(S(C)(=O)=O)nc2)cc1 [Compound 615] : condition not met
5. CC1CCc2nc3sc(C(N)=O)c(N)c3cc2C1 (centres unmarked) [Compound 336] : condition not met

Next, consider the following compound.
Asked: Is CC50 strictly under 30 µM for the entry Cc1ccc(-c2nc(Nc3ccc(I)cc3)c3ccccc3n2)cc1 [Compound 729] ?
Given back: condition not met

###

system: U1 cells latently infected with HIV-1; test: U1 latency activation assay (TNF-α induced, supernatant reverse transcriptase); type: cell-based; conditions: U1 cell assay, Table 6
Property: TI (TC50/IC50); scope: individual compounds

Worked cases, TI (TC50/IC50) given:
1) COc1cccc(NC(=O)c2cc(Cl)nnc2Cl)c1 : >26.6
2) O=c1c2ccccc2n2nnc3ccc(NCCCN4CCN(CCCNc5ccc6nnn7c8ccccc8c(=O)c5c67)CC4)c1c32 [Temacrazine, reference compound] : >250
3) CCc1c(C)nc2sc(C(N)=O)c(N)c2c1C : >94

Asked: // TI (TC50/IC50) lookup, key: `Fc1ccc(Nc2ncnc3ccccc23)cc1Cl`
Given back: >151

Asked: TI (TC50/IC50) for `COc1ccc2cc3c(N)n[nH]c3nc2c1` ?
Given back: 102

Asked: Requested field: TI (TC50/IC50). Item: `COc1ccc2nc(C(F)(F)F)c(C#N)c(N)c2c1`
Given back: >49.6

###

Reported values of CC50 for individual entries
test system: U1 cells; assay: MTS staining for cell viability in U1 cell assay; format: cell-based; details: analogs, Table 8, MTS, read-out: TC50 (the source's name)

Example entries begin here.
1. O=C(c1cc(Cl)nnc1Cl)N1CCCC1 [Compound 514] : > 75 µM
2. CCOC(=O)c1sc(Cl)nc1C(F)(F)F [Compound 411] : > 75 µM
3. COC(=O)c1cccc(Nc2nc(-c3ccccc3O)nc3ccccc23)c1 [Compound 752] : > 75 µM

Asked: Reported CC50 for Clc1ccc(-c2nc(Nc3ccc(Oc4ccccc4)cc3)c3ccccc3n2)cc1 [Compound 753] : what is it?
Given back: 48 µM

###

biological target: HIV-1 Rev (Human immunodeficiency virus type 1 group M subtype B); construct: expressed in transfected cells; assay: cell-based; details: 50% inhibition of Renilla Luciferase, 24 hours, HeLa reporter line; read-out: IC50
Sequence (P04618 whole entry, looked up): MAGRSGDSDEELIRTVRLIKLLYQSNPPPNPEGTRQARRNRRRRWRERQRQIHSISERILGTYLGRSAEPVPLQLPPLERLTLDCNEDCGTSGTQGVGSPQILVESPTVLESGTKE
# pIC50 values compiled below
Please express pIC50 as -log10 of the molar concentration.

Completed entries (count: 4):
1. CCc1c(C(=O)Nc2ccccc2)c(C)nc2sc(C(N)=O)c(N)c12 [Compound 75168] : 5.62
2. COc1ccc2nc(C(F)(F)F)c(C#N)c(N)c2c1 [Compound 104366] : 5.65
3. COc1ccc2cc3c(N)n[nH]c3nc2c1 [Compound 89246] : 6.32
4. CS(=O)(=O)c1ncc(-c2ccc(Br)cc2)cn1 [Compound 107129] : 5.13

// switching to the query compound
Asked: Quick one: pIC50 of COc1cccc(NC(=O)c2cc(Cl)nnc2Cl)c1 [Compound 107740] ?
Given back: 5.10

###

test: MTS staining for PBMC viability to measure cytotoxicity; assay type: cell-based, human; settings: human, TC50
Entries annotated with measured CC50 at 7 days

1) Fc1ccc(Nc2ncnc3ccccc23)cc1Cl [Compound 109020] : > 40.8 µM

Now take the following compound into account.
Asked: Any idea what its CC50 at 7 days is? The compound is CCc1c(C)nc2sc(C(N)=O)c(N)c2c1C [Compound 103833]
Given back: > 37.6 µM

###

Entries and their CC50 at 24 hours values follow.
assay: HIV-1 Rev assay toxicity/non-specificity readout (Firefly Luciferase); type: cell-based; conditions: human
Please reply with the bare figure in µM and do not write the unit itself.

Asked: Need CC50 at 24 hours, item `CS(=O)(=O)c1ncc(-c2ccc(Br)cc2)cn1`
Given back: 30.9

Asked: Using the record for `CCc1c(C(=O)Nc2ccccc2)c(C)nc2sc(C(N)=O)c(N)c12` , report its CC50 at 24 hours.
Given back: 7.91

Asked: Could you tell me which CC50 at 24 hours is on file for `COc1cccc(NC(=O)c2cc(Cl)nnc2Cl)c1` ?
Given back: 18.5

Asked: Could you share which CC50 at 24 hours value was measured for `COc1ccc2cc3c(N)n[nH]c3nc2c1` ?
Given back: 8.41

###

tested on: U1 cells; assay: MTS staining for cell viability in U1 cell assay; type: cell-based; conditions: analogs, Table 8, MTS, read-out: TC50 (the source's name)
Reported values of CC50 for individual entries

1) Cc1cccc(-c2nc(Nc3ccc(I)cc3)c3ccccc3n2)c1 : 50.1 µM
2) COc1ccc(-c2c(C(C)=O)c(C)nc3sc(C(N)=O)c(N)c23)cc1 : > 75 µM

Asked: Please look up its CC50: `C=CCc1c(C)nc2ccc(OC)cc2c1N`
Given back: > 75 µM

Asked: Recorded CC50 for `Cc1ccc(NC(=O)c2sc(Cl)nc2-c2ccccc2)c(C)c1` , please?
Given back: > 75 µM

Asked: # get_value(readout='CC50', item= `O=[N+]([O-])c1ccc(-c2cnc(NO)nc2)cc1` )
Given back: > 75 µM

Asked: GET /values?readout=CC50&item= `CCCc1ccc2c(N)c(C(N)=O)sc2n1`
Given back: 58.4 µM

Asked: Consider the compound `COc1ccc2nc3c(c(N)c2c1)CCCC3` and give its measured CC50.
Given back: 48.5 µM

###

assay: MTS staining for cell viability in U1 cell assay; type: cell-based; settings: human, U1 cells stimulated with TNF-α, analogs, Table 8, MTS, read-out: TC50
Measurement kind: CC50 at 3 days

Asked: Param item = COc1ccc2cc3c(N)n[nH]c3nc2c1 [Compound 89246] ; retrieve measured CC50 at 3 days.
Given back: 29 µM

###

tested on: HIV particle formation in 5BD.1 cells; experiment: Six point dose response assay of HIV particle release (p24 ELISA) in 5BD.1 cells; type: cell-based, HIV-1; conditions: TC50 MT4 cells / IC50 5BD.1 cells
Quick reference: TI (TC50/IC50) of the listed items.
Answer with a bare number; do not write a unit.

For orientation, consider the following solved cases.
1. Fc1ccc(Nc2ncnc3ccccc23)cc1Cl [Compound 109020] : 33.3
2. COc1ccc2nc(C(F)(F)F)c(C#N)c(N)c2c1 [Compound 104366] : 11.2

Asked: # get_value(readout='TI (TC50/IC50)', item= CS(=O)(=O)c1ncc(-c2ccc(Br)cc2)cn1 [Compound 107129] )
Given back: 40.0

Asked: # input molecule: COc1ccc2cc3c(N)n[nH]c3nc2c1 [Compound 89246] ; wanted: its TI (TC50/IC50)
Given back: 22.22

Asked: Item COc1cccc(NC(=O)c2cc(Cl)nnc2Cl)c1 [Compound 107740] has what recorded TI (TC50/IC50)?
Given back: 10.2

Asked: If you can, please state the reported TI (TC50/IC50) value of CCc1c(C)nc2sc(C(N)=O)c(N)c2c1C [Compound 103833] .
Given back: 35.6

###

Known TI (TC50/IC50) of a selection of molecules
test system: HIV-1 NL4-3; assay: Anti-HIV efficacy in fresh human PBMCs, reverse transcriptase readout, HIV-1 NL4-3; format: cell-based; details: HIV-1 NL4-3, PBMCs

1) Cc1cn([C@H]2C[C@H](N=[N+]=[N-])[C@@H](CO)O2)c(=O)[nH]c1=O [AZT, reference compound] : >1612.90
2) CCc1c(C(=O)Nc2ccccc2)c(C)nc2sc(C(N)=O)c(N)c12 : >1.59
3) CCc1c(C)nc2sc(C(N)=O)c(N)c2c1C : >16.94

From here, focus on the item given below.
Asked: Data request, read-out TI (TC50/IC50), for `Fc1ccc(Nc2ncnc3ccccc23)cc1Cl`
Given back: >1.55
